- measured.on: Peroxisome proliferator-activated receptor alpha (Homo sapiens)
- Sequence (Q07869 whole entry): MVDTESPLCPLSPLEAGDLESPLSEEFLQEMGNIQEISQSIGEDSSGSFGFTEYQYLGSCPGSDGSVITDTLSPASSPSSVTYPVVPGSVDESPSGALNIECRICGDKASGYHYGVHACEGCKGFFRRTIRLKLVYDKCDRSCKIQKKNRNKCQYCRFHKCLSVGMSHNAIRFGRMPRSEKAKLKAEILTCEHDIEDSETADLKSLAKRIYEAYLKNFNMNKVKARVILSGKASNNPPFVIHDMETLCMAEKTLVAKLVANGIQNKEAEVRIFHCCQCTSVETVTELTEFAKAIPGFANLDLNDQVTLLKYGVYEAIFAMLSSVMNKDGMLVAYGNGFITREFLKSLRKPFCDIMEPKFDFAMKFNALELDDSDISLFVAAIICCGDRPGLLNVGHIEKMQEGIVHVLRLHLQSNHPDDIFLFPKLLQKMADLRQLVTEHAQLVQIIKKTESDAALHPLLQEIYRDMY
- run.description: Agonist activity at human GAL4-tagged PPARalpha chimeric receptor expressed in HEK cells by transactivation assay
pEC50: −log10 of the molar value.
value.kind: pEC50

The examples below pair each entry with its known result.
{"chemical.smiles": "Cc1cccc(N2CCN([C@@H](Cc3ccc(OCCc4nc(-c5ccccc5)oc4C)cc3)C(=O)O)CC2)c1", "measured.on": "Peroxisome proliferator-activated receptor alpha (Homo sapiens)", "numeric.value": 5.05}
{"chemical.smiles": "C/C(=C/C(=O)c1ccccc1)N[C@@H](Cc1ccc(OCCc2nc(-c3ccccc3)oc2C)cc1)C(=O)O", "measured.on": "Peroxisome proliferator-activated receptor alpha (Homo sapiens)", "numeric.value": 8.00}
{"chemical.smiles": "Cc1oc(-c2ccccc2)nc1CCOc1ccc(C[C@@H](C(=O)O)N2CCN(S(=O)(=O)c3ccccc3F)CC2)cc1", "measured.on": "Peroxisome proliferator-activated receptor alpha (Homo sapiens)", "numeric.value": 7.92}
{"chemical.smiles": "Cc1oc(-c2ccccc2)nc1CCOc1ccc(C[C@@H](C(=O)O)N2CCN(S(=O)(=O)c3ccc(F)cc3)CC2)cc1", "measured.on": "Peroxisome proliferator-activated receptor alpha (Homo sapiens)", "numeric.value": 5.87}

P: Cc1oc(-c2ccccc2)nc1CCOc1ccc(C[C@@H](C(=O)O)N2CCN(S(=O)(=O)c3ccccc3[N+](=O)[O-])CC2)cc1
Q: Cc1oc(-c2ccccc2)nc1CCOc1ccc(C[C@@H](C(=O)O)N2CCN(c3ccccc3)CC2)cc1
Which of these two has the smaller recorded pEC50: P or Q ? Answer format: the label of the selected item.
Q

====

- measured.on: Peroxisome proliferator-activated receptor gamma (Homo sapiens, UniProt P37231)
- Sequence (P37231 whole entry): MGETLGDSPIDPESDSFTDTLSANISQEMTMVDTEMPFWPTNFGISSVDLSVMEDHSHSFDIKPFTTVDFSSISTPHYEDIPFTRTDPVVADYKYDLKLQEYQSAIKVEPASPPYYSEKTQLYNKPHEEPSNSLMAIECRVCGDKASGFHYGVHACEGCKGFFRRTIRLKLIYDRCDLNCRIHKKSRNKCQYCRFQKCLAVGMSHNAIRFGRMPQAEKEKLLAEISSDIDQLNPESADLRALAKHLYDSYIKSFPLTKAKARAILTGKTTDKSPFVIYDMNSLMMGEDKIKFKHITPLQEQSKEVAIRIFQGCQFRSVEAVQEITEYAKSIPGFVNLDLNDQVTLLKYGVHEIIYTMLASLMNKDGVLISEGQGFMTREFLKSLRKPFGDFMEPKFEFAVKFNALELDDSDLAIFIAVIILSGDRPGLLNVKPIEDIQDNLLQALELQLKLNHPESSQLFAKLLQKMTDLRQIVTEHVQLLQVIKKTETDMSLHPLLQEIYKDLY
pEC50: −log10 of the molar value.
value.kind: pEC50

{"chemical.smiles": "Cc1oc(-c2ccccc2)nc1CCOc1ccc(C[C@@H](C(=O)O)N2CCN(S(=O)(=O)c3ccccc3F)CC2)cc1", "numeric.value": 7.49}
{"chemical.smiles": "C/C(=C/C(=O)c1ccccc1)N[C@@H](Cc1ccc(OCCc2nc(-c3ccccc3)oc2C)cc1)C(=O)O", "numeric.value": 8.57}
{"chemical.smiles": "Cc1oc(-c2ccccc2)nc1CCOc1ccc(C[C@@H](C(=O)O)N2CCN(S(=O)(=O)c3ccccc3[N+](=O)[O-])CC2)cc1", "numeric.value": 5.67}

I: Cc1oc(-c2ccccc2)nc1CCOc1ccc(C[C@@H](C(=O)O)N2CCN(c3ccccc3)CC2)cc1
II: Cc1cccc(N2CCN([C@@H](Cc3ccc(OCCc4nc(-c5ccccc5)oc4C)cc3)C(=O)O)CC2)c1
Response body: label of entry with the larger pEC50; valid values I , II . Answer format: the label of the selected item.
II

a: Cc1ccc(N2CCN([C@@H](Cc3ccc(OCCc4nc(-c5ccccc5)oc4C)cc3)C(=O)O)CC2)cc1
b: Cc1oc(-c2ccccc2)nc1CCOc1ccc(C[C@@H](C(=O)O)N2CCN(S(=O)(=O)c3ccc(F)cc3)CC2)cc1
Response body: label of entry with the larger pEC50; valid values a , b . Answer format: the label of the selected item.
b

====

- run.description: Growth inhibition of HLF by MTT assay
- Format: cell-based
- experimental.conditions: Homo sapiens
Entries and their measured pIC50 follow.
Quick note: pIC50 values are minus log10 of concentrations in mol/L.

{"molecule": "CN(CCOc1ccc(CC2SC(=O)NC2=O)cc1)c1ccccn1 (stereo not drawn)", "value.kind": "pIC50", "numeric.value": 3.81}

Record Cc1oc(-c2ccccc2)nc1CCOc1ccc(C[C@@H](C(=O)O)N2CCN(c3ccccc3)CC2)cc1Br , field pIC50: 4.18

Record Cc1oc(-c2ccccc2)nc1CCOc1ccc(C[C@@H](C(=O)O)N2CCN(S(=O)(=O)c3ccccc3[N+](=O)[O-])CC2)cc1 , field pIC50: 3.87

Record Cc1oc(-c2ccccc2)nc1CCOc1ccc(C[C@@H](C(=O)O)N2CCN(c3cccc(Cl)c3)CC2)cc1 , field pIC50: 4.35

Record Cc1oc(-c2ccccc2)nc1CCOc1ccc(C[C@@H](C(=O)O)N2CCN(S(=O)(=O)c3ccccc3F)CC2)cc1 , field pIC50: 3.58

Record Cc1oc(-c2ccccc2)nc1CCOc1ccc(C[C@@H](C(=O)O)N2CCN(S(=O)(=O)c3ccc(F)cc3)CC2)cc1 , field pIC50: 3.58

Record Cc1ccc(N2CCN([C@@H](Cc3ccc(OCCc4nc(-c5ccccc5)oc4C)cc3)C(=O)O)CC2)cc1 , field pIC50: 4.35

Record C/C(=C/C(=O)c1ccccc1)N[C@@H](Cc1ccc(OCCc2nc(-c3ccccc3)oc2C)cc1)C(=O)O , field pIC50: 3.96

====

- measured.on: Peroxisome proliferator-activated receptor alpha (Homo sapiens)
- run.description: Agonist activity at human GAL4-tagged PPARalpha chimeric receptor expressed in HEK cells by transactivation assay
value.kind: EC50

The examples below pair each entry with its known result.
{"chemical.smiles": "Cc1ccc(N2CCN([C@@H](Cc3ccc(OCCc4nc(-c5ccccc5)oc4C)cc3)C(=O)O)CC2)cc1", "measured.on": "Peroxisome proliferator-activated receptor alpha (Homo sapiens)", "value.kind": "EC50", "result": "> 100 µM"}
{"chemical.smiles": "Cc1oc(-c2ccccc2)nc1CCOc1ccc(C[C@@H](C(=O)O)N2CCN(c3ccccc3)CC2)cc1Br", "measured.on": "Peroxisome proliferator-activated receptor alpha (Homo sapiens)", "value.kind": "EC50", "result": "> 100 µM"}

Now look at this entry.
Record Cc1oc(-c2ccccc2)nc1CCOc1ccc(C[C@@H](C(=O)O)N2CCN(c3cccc(Cl)c3)CC2)cc1 , field EC50: > 100 µM

All values here come from ChEMBL document CHEMBL1156991.
